meta.source: ChEMBL document CHEMBL1146661

Examples of compounds with documented Ki follow.
# target_under_test: Sodium-dependent dopamine transporter (Rattus norvegicus)
# Sequence (P23977 whole entry): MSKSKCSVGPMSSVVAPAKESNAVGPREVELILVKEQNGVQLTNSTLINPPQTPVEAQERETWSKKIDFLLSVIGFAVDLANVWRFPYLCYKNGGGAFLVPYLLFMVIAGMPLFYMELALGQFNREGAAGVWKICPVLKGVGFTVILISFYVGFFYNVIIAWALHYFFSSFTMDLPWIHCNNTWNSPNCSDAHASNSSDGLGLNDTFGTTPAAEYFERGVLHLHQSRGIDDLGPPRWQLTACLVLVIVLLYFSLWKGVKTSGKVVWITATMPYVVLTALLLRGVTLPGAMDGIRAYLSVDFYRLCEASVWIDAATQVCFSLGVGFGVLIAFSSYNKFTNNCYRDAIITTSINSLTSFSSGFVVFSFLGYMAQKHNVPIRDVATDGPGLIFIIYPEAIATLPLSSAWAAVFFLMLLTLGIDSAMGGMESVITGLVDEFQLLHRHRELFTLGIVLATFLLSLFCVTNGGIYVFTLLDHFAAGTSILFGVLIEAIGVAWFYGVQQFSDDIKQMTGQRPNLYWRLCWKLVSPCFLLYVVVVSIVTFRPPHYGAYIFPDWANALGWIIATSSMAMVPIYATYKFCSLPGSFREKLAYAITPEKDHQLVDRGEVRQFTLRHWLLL
# method_notes: Displacement of [3H]WIN-35428 from dopamine transporter of rat brain membrane
# Format: tissue-based
Respond with the bare value in nM.

In the examples that follow, each entry is paired with its recorded Ki.
CN1C2CC(OC(c3ccc(F)cc3)c3ccc(F)cc3)CC1[C@H](O)C2 (some centres not stated)	31.3
COS(=O)(=O)[C@H]1CC2C[C@H](OC(c3ccc(F)cc3)c3ccc(F)cc3)CC1N2C (some centres not stated)	81
CN1C2CC(OC(c3ccc(F)cc3)c3ccc(F)cc3)CC1[C@@H](C(=O)O)C2 (some centres not stated)	5.81
COC(=O)[C@H]1CC2C[C@H](OC(c3ccc(F)cc3)c3ccc(F)cc3)CC1N2C (some centres not stated)	57.1
CC(C)OC(=O)[C@H]1CC2C[C@H](OC(c3ccc(F)cc3)c3ccc(F)cc3)CC1N2C (some centres not stated)	151

Respond only with Ki recorded for CCOC(=O)[C@H]1CC2C[C@H](OC(c3ccc(F)cc3)c3ccc(F)cc3)CC1N2C (some centres not stated)
75.4

Quickly give me recorded Ki for CN1C2C[C@H](OC(c3ccc(F)cc3)c3ccc(F)cc3)CC1[C@@H](C(=O)Oc1ccccc1)C2 (some centres not stated)
107

Retrieve Ki measured for CC(C)COC(=O)[C@H]1CC2C[C@H](OC(c3ccc(F)cc3)c3ccc(F)cc3)CC1N2C (some centres not stated) and print it.
148

###

# pKi per record follows
# target_under_test: Norepinephrine transporter (Rattus norvegicus, UniProt Q9WTR4)
# Sequence (Q9WTR4 whole entry): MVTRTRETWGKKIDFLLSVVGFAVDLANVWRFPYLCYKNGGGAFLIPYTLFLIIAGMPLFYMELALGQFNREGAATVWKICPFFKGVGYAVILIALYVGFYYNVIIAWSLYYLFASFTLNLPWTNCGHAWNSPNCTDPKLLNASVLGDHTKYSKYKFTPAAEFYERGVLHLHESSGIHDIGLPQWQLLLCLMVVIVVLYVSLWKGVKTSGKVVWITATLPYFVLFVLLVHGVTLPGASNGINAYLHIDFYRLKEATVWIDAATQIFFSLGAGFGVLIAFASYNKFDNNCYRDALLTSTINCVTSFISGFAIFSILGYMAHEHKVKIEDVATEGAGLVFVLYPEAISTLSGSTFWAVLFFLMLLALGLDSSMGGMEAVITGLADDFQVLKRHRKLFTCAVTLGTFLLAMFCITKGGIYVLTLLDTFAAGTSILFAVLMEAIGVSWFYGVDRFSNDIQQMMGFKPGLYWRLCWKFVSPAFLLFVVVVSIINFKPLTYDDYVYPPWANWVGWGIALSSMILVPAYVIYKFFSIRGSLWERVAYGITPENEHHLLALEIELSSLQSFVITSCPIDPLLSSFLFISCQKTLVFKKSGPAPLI
Schema: pKi number; meaning minus log10 of the concentration expressed in molar units.

Use the examples below as a reference point.
CN1C2CC(OC(c3ccc(F)cc3)c3ccc(F)cc3)CC1[C@@H](C(=O)O)C2 (some centres undefined)	5.86
O=C(Oc1ccccc1)[C@H]1CC2C[C@H](OC(c3ccc(F)cc3)c3ccc(F)cc3)CC1N2 (some centres undefined)	5.50
COC(=O)[C@H]1CC2C[C@H](OC(c3ccc(F)cc3)c3ccc(F)cc3)CC1N2C (some centres undefined)	5.16
CN1C2C[C@H](OC(c3ccc(F)cc3)c3ccc(F)cc3)CC1[C@@H](C(=O)OCc1ccccc1)C2 (some centres undefined)	5.21
CN1C2CC(OC(c3ccc(F)cc3)c3ccc(F)cc3)CC1[C@@H](O)C2 (some centres undefined)	5.89
CC(C)OC(=O)[C@H]1CC2C[C@H](OC(c3ccc(F)cc3)c3ccc(F)cc3)CC1N2C (some centres undefined)	4.99
CN1C2CCC1CC(OC(c1ccc(F)cc1)c1ccc(F)cc1)C2 (centres undefined) [DIFLUOROBENZTROPINE]	6.07
CCOC(=O)[C@H]1CC2C[C@H](OC(c3ccc(F)cc3)c3ccc(F)cc3)CC1N2C (some centres undefined)	5.43

Proceeding to the next compound to report its pKi.
Give pKi for CN1C2CC(OC(c3ccc(F)cc3)c3ccc(F)cc3)CC1[C@H](O)C2 (some centres undefined)
5.19

###

# target_under_test: Muscarinic acetylcholine receptor M1 (Rattus norvegicus, UniProt P08482)
# Sequence (P08482 whole entry): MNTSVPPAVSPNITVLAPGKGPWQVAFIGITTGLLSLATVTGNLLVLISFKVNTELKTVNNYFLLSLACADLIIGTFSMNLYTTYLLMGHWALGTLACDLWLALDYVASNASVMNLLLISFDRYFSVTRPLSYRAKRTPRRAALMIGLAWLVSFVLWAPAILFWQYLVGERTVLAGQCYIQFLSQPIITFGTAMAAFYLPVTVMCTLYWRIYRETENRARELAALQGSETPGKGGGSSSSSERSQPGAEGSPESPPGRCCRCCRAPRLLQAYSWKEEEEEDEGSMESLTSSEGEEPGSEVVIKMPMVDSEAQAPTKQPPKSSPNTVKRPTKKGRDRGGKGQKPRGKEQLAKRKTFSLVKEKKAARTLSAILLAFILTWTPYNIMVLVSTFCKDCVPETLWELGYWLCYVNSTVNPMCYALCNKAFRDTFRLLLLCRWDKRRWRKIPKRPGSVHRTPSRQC
measurement_label: Ki
Remember to put the unit after the number in your answer.

The cases that follow already have their Ki on record.
CN1C2CC(OC(c3ccc(F)cc3)c3ccc(F)cc3)CC1[C@@H](O)C2 (stereo not given in full)	48.3 nM
CN1C2CC(OC(c3ccc(F)cc3)c3ccc(F)cc3)CC1[C@H](O)C2 (stereo not given in full)	27 nM
CN1C2C[C@H](OC(c3ccc(F)cc3)c3ccc(F)cc3)CC1[C@@H](C(=O)Oc1ccccc1)C2 (stereo not given in full)	552 nM
CC(C)COC(=O)[C@H]1CC2C[C@H](OC(c3ccc(F)cc3)c3ccc(F)cc3)CC1N2C (stereo not given in full)	723 nM

Please look at the following compound next.
# lookup: Muscarinic acetylcholine receptor M1 (Rattus norvegicus, UniProt P08482) Ki, key = COS(=O)(=O)[C@H]1CC2C[C@H](OC(c3ccc(F)cc3)c3ccc(F)cc3)CC1N2C (stereo not given in full)
617 nM
